# SUBJECT OF TEST: T1, cynomolgus monkey FcRn (cynomolgus monkey, UniProt Q8SPV9 24-297; Q8SPW0 21-119, limits assumed)
# T1 construct: also called Cynomolgus FcRn
# EXPERIMENTAL PROTOCOL: SPR competition pH 5.5
MEASURED PARAMETER: EC50 (nM)
A number alone suffices; assume nM.

Annotate the binder variant Fc-fragment Fc-5-106 (other, soluble elsewhere) EPKSCDKTHTCPPCPAPELLGGPSVFLFPPKPKDTLMISRTPEVTCVVVDVSHEDPEVKFNWYVDGVEVHNAKTKPREEQYNSTYRVVSVLTVLHQDWLNGKEYKCKVSNKALPAPIEKTISKAKGQPREPQVYTLPPSRDELTKNQVSLTCLVKGFYPSDIAVEWESNGGCVFNMFNCGGGQPENNYKTTPPVLDSDGSFFLYSKLTVDKSRWQQGNVFSCSVMHEALHNHYTQKSLSLSPGK with its measured EC50.
4.6

State its EC50 for this binder: variant Fc-fragment Fc-5-106-M4L (other) EPKSCDKTHTCPPCPAPELLGGPSVFLFPPKPKDTLMISRTPEVTCVVVDVSHEDPEVKFNWYVDGVEVHNAKTKPREEQYNSTYRVVSVLTVLHQDWLNGKEYKCKVSNKALPAPIEKTISKAKGQPREPQVYTLPPSRDELTKNQVSLTCLVKGFYPSDIAVEWESNGGCVFNLFNCGGGQPENNYKTTPPVLDSDGSFFLYSKLTVDKSRWQQGNVFSCSVMHEALHNHYTQKSLSLSPGK
2.8

Return EC50 (reported value) for this binder: variant Fc-fragment Fc-5-106-M4T (other) EPKSCDKTHTCPPCPAPELLGGPSVFLFPPKPKDTLMISRTPEVTCVVVDVSHEDPEVKFNWYVDGVEVHNAKTKPREEQYNSTYRVVSVLTVLHQDWLNGKEYKCKVSNKALPAPIEKTISKAKGQPREPQVYTLPPSRDELTKNQVSLTCLVKGFYPSDIAVEWESNGGCVFNTFNCGGGQPENNYKTTPPVLDSDGSFFLYSKLTVDKSRWQQGNVFSCSVMHEALHNHYTQKSLSLSPGK
8.3

Answer with the recorded EC50 for the binder listed here: variant Fc-fragment Fc-5-106-M4I (other) EPKSCDKTHTCPPCPAPELLGGPSVFLFPPKPKDTLMISRTPEVTCVVVDVSHEDPEVKFNWYVDGVEVHNAKTKPREEQYNSTYRVVSVLTVLHQDWLNGKEYKCKVSNKALPAPIEKTISKAKGQPREPQVYTLPPSRDELTKNQVSLTCLVKGFYPSDIAVEWESNGGCVFNIFNCGGGQPENNYKTTPPVLDSDGSFFLYSKLTVDKSRWQQGNVFSCSVMHEALHNHYTQKSLSLSPGK
3.2

Next item in the queue.
For the binder variant Fc-fragment Fc-5-106-M4V (other) EPKSCDKTHTCPPCPAPELLGGPSVFLFPPKPKDTLMISRTPEVTCVVVDVSHEDPEVKFNWYVDGVEVHNAKTKPREEQYNSTYRVVSVLTVLHQDWLNGKEYKCKVSNKALPAPIEKTISKAKGQPREPQVYTLPPSRDELTKNQVSLTCLVKGFYPSDIAVEWESNGGCVFNVFNCGGGQPENNYKTTPPVLDSDGSFFLYSKLTVDKSRWQQGNVFSCSVMHEALHNHYTQKSLSLSPGK , give its reported EC50.
5
